B1: ZNF263 (parent)
chain: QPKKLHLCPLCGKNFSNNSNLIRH

Variants of: B1
measurement-notes: protein stability index of a GFP-peptide fusion (GPS, HEK-293T) (PSI 1-6); higher = more stable;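 note: lentivirally expressed fusions sorted by FACS into six bins by GFP to DsRed ratio, PSI derived from sequencing read proportions per bin multiplied by bin number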
experimental-setup: c terminus: a fixed tail appended
endpoint: protein stability index
// return just the number, without any unit appended

Example cases with answers are listed next.
- variant-string: "K3R"
  protein stability index: 2.06
- variant-string: "N14W"
  protein stability index: 3.51
- variant-string: "S16Y"
  protein stability index: 2.6
- variant-string: "P9Y"
  protein stability index: 2.61
- variant-string: "Q1Y"
  protein stability index: 2.23

Prompt: Fill blank: measured protein stability index of the variant Q1N is ____.
Completion: 2.83

These data points were gathered from the supplement of paper PMC10567573.
